Cited source: the supplement of paper PMC9112550

# System: Escherichia coli TOP10;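 note: peptides expressed intracellularly from a pBAD plasmid library in pooled LB shake-flask culture, induced with 0.3% L-arabinose, DNA abundance read by NGS, three biological replicates, DESeq2 with apeglm shrinkage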
# assay-procedure: shrunken log2 fold change of peptide-encoding DNA abundance (4.5 h post-induction vs induction); higher = less antimicrobial activity (less host growth inhibition)
# cond: time post-induction: 4.5 h; library: site-saturation at positions 5, 18, 19, 20

{"columns": ["polymer-sequence", "shrunken log2 fold change"],
 "data": [
  ["RRIRDRPPRLPRPRPRPTSAPRP", 0.418],
  ["RRIRCRPPRLPRPRPRPNNVPRP", -0.687],
  ["RRIRARPPRLPRPRPRPNLTPRP", 0.287],
  ["RRIRLRPPRLPRPRPRPGNNPRP", -0.58],
  ["RRIRCRPPRLPRPRPRPMRGPRP", 1.05],
  ["RRIRSRPPRLPRPRPRPPPIPRP", 0.572],
  ["RRIRNRPPRLPRPRPRPFYAPRP", -0.281],
  ["RRIRKRPPRLPRPRPRPEHAPRP", 1.12]
]}
